mTOR (Homo sapiens): recorded pIC50 for assorted compounds
In plain terms, pIC50 is the concentration in mol/L turned into minus its base-10 logarithm.

# query: pIC50 of entry Cc1nc(N)nc(-c2c(Nc3cc[nH]n3)nc3ccc(C4=CCN(C(=O)OC(C)(C)C)CC4)cn23)n1
7.80

Now try Cc1nc(NC(=O)CN(C)C)cc(-c2c(Nc3ccn(C)n3)nc3cccnn23)n1 .
6.11

Now try CNC(=O)c1cc(Nc2ccn[nH]2)n(-c2cc(N)nc(C)n2)n1 .
6.92

Now try Cc1nc(N)cc(-c2c(Nc3ccc4cc[nH]c4n3)nc3ccccn23)n1 .
6.40

Now try CC(=O)NCc1ccc(-c2ccc3nc(Nc4cc[nH]n4)c(-c4nc(C)nc(N)n4)n3c2)cc1 .
9.00

Now try Cc1nc(N)nc(-c2c(Nc3cc[nH]n3)nc3cc(C4=CCN(C(=O)OC(C)(C)C)CC4)ccn23)n1 .
6.34

Now try Cc1nc(NC(=O)CC(F)(F)F)cc(-c2c(Nc3ccn(C)n3)nc3cccnn23)n1 .
6.09

Now try Cc1nc(Nc2ccc(N3CCOCC3)nn2)cc(-c2c(Nc3cc[nH]n3)nc3ccccn23)n1 .
7.10

Now try Cc1nc(Nc2ccc(N3CCOC(C)C3)nn2)cc(-c2c(Nc3cc[nH]n3)nc3cccnn23)n1 (centres unmarked) .
6.96

Now try Cc1nc(Nc2ccc(N3CCN(C)CC3)nn2)cc(-c2c(Nc3cc[nH]n3)nc3cccnn23)n1 .
8.00

Now try Cc1nc(N)nc(-c2c(Nc3cc[nH]n3)nc3ccc(-c4ccc(C(=O)O)cc4C)cn23)n1 .
9.00

Now try Cc1cc(Nc2cc[nH]n2)n(-c2cc(N)nc(C)n2)n1 .
6.07

Now try CNCCNC(=O)n1ccc(Nc2nc3cccnn3c2-c2cc(N)nc(C)n2)n1 .
6.30

Now try Cc1nc(N)nc(-c2c(Nc3cc[nH]n3)nc3ccc(Nc4ccncc4)cn23)n1 .
7.60

Now try COCCOc1cnnc(Nc2cc(-c3c(Nc4ccc(NC(C)=O)cc4)nc4cccnn34)nc(C)n2)c1 .
9.00

Now try Cc1nc(N)cc(-n2nc(C(=O)NC3CC3)cc2Nc2cc[nH]n2)n1 .
6.42

Now try Cc1nc(N)cc(-c2c(Nc3cccc(N4CCN(C)CC4)c3)nc3cccnn23)n1 .
6.37

---

- studySystem: mTOR (Homo sapiens, UniProt P42345)
quantityKind: pIC50
In plain terms, pIC50 is the concentration in mol/L turned into minus its base-10 logarithm.

# query: pIC50 of entry Cc1nc(N)cc(-n2nc(C(=O)Nc3cccnc3)cc2Nc2ccn[nH]2)n1
6.09

Now try Cc1nc(-c2c(Nc3cccc(O)c3)nc3ccccn23)c2nc[nH]c2n1 .
7.62

Now try Cc1nc(NC(=O)CC#N)cc(-c2c(Nc3ccn(C)n3)nc3ccccn23)n1 .
6.16

Now try Cc1nc(N)cc(-c2c(Nc3ccn(-c4ccccn4)n3)nc3ccccn23)n1 .
6.07

Now try Cc1nc(N)nc(-c2c(Nc3cc[nH]n3)nc3ccccn23)n1 .
7.92

---

- System: phosphorylation of Akt at Serine 473 in U87 MG cells
- assayText: pAkt AlphaScreen (U87 cell)
- Assay type: cell-based
- conditionsUsed: Homo sapiens, U-87 MG, 2 h; pAkt at Serine 473, U87 MG cells, two hours with compound
quantityKind: pIC50
In plain terms, pIC50 is the concentration in mol/L turned into minus its base-10 logarithm.

# query: pIC50 of entry Cc1nc(N)cc(-c2c(Nc3ccc(N4CC(O)C4)nc3)nc3cccnn23)n1 [Cpd 272]
6.96

Now try Cc1nc(NCC#N)cc(-c2c(Nc3cc[nH]n3)nc3cccnn23)n1 [Cpd 90] .
7.70

Now try COc1ccc(Nc2cc(C)nn2-c2cc(N)nc(C)n2)cn1 [Cpd 24] .
6.06

Now try Cc1nc(N)nc(-c2c(Nc3ccn(C(=O)Nc4ccccc4)n3)nc3ccccn23)n1 [Cpd 204] .
7.05

Now try Cc1nc(N)cc(-c2c(Nc3ccc4cc[nH]c4n3)nc3ccccn23)n1 [Cpd 41] .
6.40

Now try Cc1nc(N)nc(-c2c(Nc3cc[nH]n3)nc3ccc(-c4cccc(NC(=O)C5CC5)c4)cn23)n1 [Cpd 115] .
7.40

Now try Cc1nc(NC(=O)Cc2ccc(F)cc2F)cc(-c2c(Nc3ccn(C)n3)nc3cccnn23)n1 [Cpd 129] .
5.83

Now try COCCOc1ccn2c(-c3nc(C)nc(N)n3)c(Nc3cc[nH]n3)nc2c1 [Cpd 185] .
7.30

Now try Cc1nc(NCC(F)(F)F)cc(-c2c(Nc3ccn[nH]3)nc3cccnn23)n1 [Cpd 295] .
6.62

Cited source for all entries: patent US20120190666A1
